# study-conditions: in isobutanol, 308.15 K
reported-metric: solubility (mole fraction)
// keep it numeric: no unit symbol after the value

Supply recorded solubility (mole fraction) for O=C(N[C@@H](Cc1c[nH]c2ccccc12)C(=O)O)OCc1ccccc1 here.
0.0379

----------
# study-conditions: in isopropanol, 293.15 K
reported-metric: solubility (mole fraction)
A bare number is all that is needed in reply.

Name the recorded solubility (mole fraction) of the item O=C(N[C@@H](Cc1c[nH]c2ccccc12)C(=O)O)OCc1ccccc1 in your answer.
0.0439

----------
# study-conditions: in water, 303.15 K
reported-metric: solubility (mole fraction)
// return just the number, without any unit appended

Identify measured solubility (mole fraction) corresponding to O=C(N[C@@H](Cc1c[nH]c2ccccc12)C(=O)O)OCc1ccccc1
8.87e-05

----------
# study-conditions: in water, 318.15 K
reported-metric: solubility (mole fraction)
// no unit string in output, number only

Dear colleague, please send me the reported solubility (mole fraction) for O=C(N[C@@H](Cc1c[nH]c2ccccc12)C(=O)O)OCc1ccccc1 when you can.
0.000118

----------
# study-conditions: in n-pentanol, 323.15 K
reported-metric: solubility (mole fraction)
Output spec: single numeric token, no unit.

Identify solubility (mole fraction) associated with the molecule O=C(N[C@@H](Cc1c[nH]c2ccccc12)C(=O)O)OCc1ccccc1
0.0717

----------
# study-conditions: in methyl acetate, 303.15 K
reported-metric: solubility (mole fraction)
Give the figure only, with no unit attached.

Give reported solubility (mole fraction) value for O=C(N[C@@H](Cc1c[nH]c2ccccc12)C(=O)O)OCc1ccccc1
0.112

----------
# study-conditions: in n-propanol, 283.15 K
reported-metric: solubility (mole fraction)
Number only, please.

Read the entry O=C(N[C@@H](Cc1c[nH]c2ccccc12)C(=O)O)OCc1ccccc1 and write its reported solubility (mole fraction).
0.0283

----------
# study-conditions: in isobutanol, 323.15 K
reported-metric: solubility (mole fraction)
Respond numerically, and do not add a unit to the figure.

Specify reported solubility (mole fraction) for the compound shown: O=C(N[C@@H](Cc1c[nH]c2ccccc12)C(=O)O)OCc1ccccc1
0.0692

----------
# study-conditions: in n-propanol, 298.15 K
reported-metric: solubility (mole fraction)
Give the figure by itself; no unit, no explanation.

Determine its reported solubility (mole fraction): O=C(N[C@@H](Cc1c[nH]c2ccccc12)C(=O)O)OCc1ccccc1
0.064

----------
# study-conditions: in methyl acetate, 308.15 K
reported-metric: solubility (mole fraction)
Just the number, please, no unit after it.

Output solubility (mole fraction) of O=C(N[C@@H](Cc1c[nH]c2ccccc12)C(=O)O)OCc1ccccc1
0.125

----------
# study-conditions: in water, 298.15 K
reported-metric: solubility (mole fraction)
API note: the answer field is a bare number with no unit suffix.

Provide solubility (mole fraction) value for the following compound: O=C(N[C@@H](Cc1c[nH]c2ccccc12)C(=O)O)OCc1ccccc1
7.79e-05

----------
# study-conditions: in isobutanol, 313.15 K
reported-metric: solubility (mole fraction)
Note: the reply should be a number with no unit written.

Provide measured solubility (mole fraction) value, entry: O=C(N[C@@H](Cc1c[nH]c2ccccc12)C(=O)O)OCc1ccccc1
0.045

----------
# study-conditions: in 2-butanone, 283.15 K
reported-metric: solubility (mole fraction)
API doc: respond with a numeric literal and nothing else, no unit.

Output solubility (mole fraction) of O=C(N[C@@H](Cc1c[nH]c2ccccc12)C(=O)O)OCc1ccccc1
0.133
